# ASSAY_METHOD_TEXT: in vivo
# APPLIED_CONDITIONS: mouse, po

| COMPOUND | TD50 / mg/kg |
| --- | --- |
| CN(C)C(=O)C(CCN1CCC(O)(c2ccc(Cl)cc2)CC1)(c1ccccc1)c1ccccc1 [Loperamide, reference compound] | 75 |
